Target: IKKε (Homo sapiens (Human), UniProt Q14164)
Sequence (Q14164 whole entry, species assumed): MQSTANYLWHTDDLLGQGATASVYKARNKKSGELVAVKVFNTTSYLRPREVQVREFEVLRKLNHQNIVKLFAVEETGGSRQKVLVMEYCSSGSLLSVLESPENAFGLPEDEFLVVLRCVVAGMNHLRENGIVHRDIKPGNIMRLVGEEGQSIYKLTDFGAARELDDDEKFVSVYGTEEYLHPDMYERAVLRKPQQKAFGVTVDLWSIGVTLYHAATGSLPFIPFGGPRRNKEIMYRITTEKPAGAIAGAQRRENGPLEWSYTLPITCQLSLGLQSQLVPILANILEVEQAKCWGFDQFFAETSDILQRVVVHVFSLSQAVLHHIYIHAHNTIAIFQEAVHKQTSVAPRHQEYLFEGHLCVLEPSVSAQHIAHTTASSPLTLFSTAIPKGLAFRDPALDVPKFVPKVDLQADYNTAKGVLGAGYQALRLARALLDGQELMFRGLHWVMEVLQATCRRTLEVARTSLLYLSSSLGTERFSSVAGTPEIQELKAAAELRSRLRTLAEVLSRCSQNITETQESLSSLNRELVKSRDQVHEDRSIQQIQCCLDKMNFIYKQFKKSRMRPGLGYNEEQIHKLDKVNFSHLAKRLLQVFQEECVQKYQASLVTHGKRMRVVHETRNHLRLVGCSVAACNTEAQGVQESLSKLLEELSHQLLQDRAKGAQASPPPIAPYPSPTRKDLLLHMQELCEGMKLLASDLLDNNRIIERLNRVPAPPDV
observed.property: IC50

Some molecules with recorded IC50:
molecule	IC50
Cn1cc(-c2cnc3[nH]cc(-c4c[nH]c5cnccc45)c3c2)cn1 [Compound A20]	0.5 to 1000 nM
Cn1cc(-c2cnc3[nH]cc(-c4cn(S(=O)(=O)c5ccccc5)c5cnccc45)c3c2)cn1 [Compound A14]	0.5 to 1000 nM
c1cc(-c2c[nH]c3ncccc23)c2ccncc2c1 [Compound A7]	1000 to 10000 nM

Now look at this one.
Request: # lookup: IC50 of c1cnc2[nH]cc(-c3c[nH]c4cnccc34)c2c1 [Compound A18]
Result: 1000 to 10000 nM

---

Target: PDK1 (Homo sapiens (Human), UniProt O15530)
Sequence (O15530 51-556): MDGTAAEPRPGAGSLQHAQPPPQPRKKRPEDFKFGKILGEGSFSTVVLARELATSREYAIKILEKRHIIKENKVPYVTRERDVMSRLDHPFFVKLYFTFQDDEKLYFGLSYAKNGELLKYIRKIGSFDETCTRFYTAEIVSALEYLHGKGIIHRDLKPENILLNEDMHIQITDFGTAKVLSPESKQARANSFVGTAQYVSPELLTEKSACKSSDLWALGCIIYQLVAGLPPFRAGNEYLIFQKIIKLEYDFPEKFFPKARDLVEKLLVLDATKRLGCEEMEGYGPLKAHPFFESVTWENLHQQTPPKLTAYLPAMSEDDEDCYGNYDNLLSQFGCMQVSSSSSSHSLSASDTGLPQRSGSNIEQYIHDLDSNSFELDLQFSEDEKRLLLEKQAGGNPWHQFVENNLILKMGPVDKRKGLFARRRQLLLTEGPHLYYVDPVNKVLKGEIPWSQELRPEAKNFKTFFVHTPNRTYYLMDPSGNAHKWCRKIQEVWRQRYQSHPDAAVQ
Known IC50 of a selection of compounds

c1cnc2[nH]cc(-c3c[nH]c4cnccc34)c2c1 1000 to 10000 nM
Cn1cc(-c2cnc3[nH]cc(-c4c[nH]c5cnccc45)c3c2)cn1 0.5 to 1000 nM
Cn1cc(-c2cnc3[nH]cc(-c4cn(S(=O)(=O)c5ccccc5)c5cnccc45)c3c2)cn1 1000 to 10000 nM

We next turn to a different compound, shown below.
Request: Param item = Cn1cc(-c2cnc3[nH]cc(-c4cn(C)c5cnccc45)c3c2)cn1 ; retrieve measured IC50.
Result: 0.5 to 1000 nM

---

Reported IC50 is given for each of the following compounds.
Test system: TGF-beta
Experiment: Inhibition of TGF-beta-mediated effects (elimination of TGF-beta-mediated growth inhibition, Mv1Lu cells, Crystal Violet)
Type: cell-based

// solved cases for IC50 follow
compound	system.tested	IC50
c1cnc2[nH]cc(-c3c[nH]c4cnccc34)c2c1 [Compound A18]	TGF-beta	1000 to 10000 nM
Cn1cc(-c2cccc3cnccc23)c2cccnc21 [Compound A17]	TGF-beta	0.5 to 1000 nM
Nc1nccc2c(-c3c[nH]c4ncccc34)cccc12 [Compound A11]	TGF-beta	1000 to 10000 nM
Nc1ncc(-c2c[nH]c3ncccc23)c2ccncc12 [Compound A24]	TGF-beta	0.5 to 1000 nM
Cc1[nH]c2ncccc2c1-c1cccc2cnccc12 [Compound A15]	TGF-beta	0.5 to 1000 nM

Request: Please report the recorded IC50 for Cn1cc(-c2c[nH]c3ncccc23)c2ccncc21 [Compound A19] .
Result: 1000 to 10000 nM

Request: Field entry: c1cnc2[nH]cc(-c3nccc4cnccc34)c2c1 [Compound A16]
Result: 0.5 to 1000 nM

Request: Record: Nc1nccc2c(-c3c[nH]c4ncccc34)nccc12 [Compound A32]
Result: 0.5 to 1000 nM

Request: Follow-up item: c1ccc2c(-c3c[nH]c4ncccc34)cnnc2c1 [Compound A4]
Result: 1000 to 10000 nM
